Target: S. mutans UA159 ComR (Streptococcus mutans serotype c, UniProt Q8DWI6)
Experiment: S. mutans ES1 test-bed PcomS::luxAB luciferase reporter assay
Assay type: cell-based
pEC50: −log10 of the molar value. Ends that are not written are not given here.

{"SUBSTANCE": "GLDWWSL [UA159 C7]", "pEC50": 9.77}

Data provenance: paper PMC5131902
